Tested on: MC-38
Assay: Antiproliferative activity against mouse MC38 cells assessed as reduction in cell viability measured after 48 hrs by CCK8 assay
Format: functional, cell-based
Details: MC-38, 48 h
pIC50: −log10 of the molar value.
The following compounds are shown together with reported pIC50 values.

Before answering, review these 2 worked examples.
Sample COc1ccc(/C=C\c2cc(OC)c(OC)c(OC)c2)cc1OCc1ccc(CNC(C)(C)C(=O)O)cc1 — what was its pIC50?
< 5.00

Cool, now COc1ccc(/C=C\c2cc(OC)c(OC)c(OC)c2)cc1OCc1ccc(CNCCNC(C)=O)cc1
5.74

Below: the item to evaluate.
Sample COc1ccc(/C=C\c2cc(OC)c(OC)c(OC)c2)cc1OCc1ccc(CN[C@H](C(=O)O)[C@@H](C)O)cc1 — what was its pIC50?
< 5.00

Every entry's value here was drawn from ChEMBL document CHEMBL4732116.
